Target: human LOXL2 (Homo sapiens (Human), UniProt Q9Y4K0)
Sequence (Q9Y4K0 26-774): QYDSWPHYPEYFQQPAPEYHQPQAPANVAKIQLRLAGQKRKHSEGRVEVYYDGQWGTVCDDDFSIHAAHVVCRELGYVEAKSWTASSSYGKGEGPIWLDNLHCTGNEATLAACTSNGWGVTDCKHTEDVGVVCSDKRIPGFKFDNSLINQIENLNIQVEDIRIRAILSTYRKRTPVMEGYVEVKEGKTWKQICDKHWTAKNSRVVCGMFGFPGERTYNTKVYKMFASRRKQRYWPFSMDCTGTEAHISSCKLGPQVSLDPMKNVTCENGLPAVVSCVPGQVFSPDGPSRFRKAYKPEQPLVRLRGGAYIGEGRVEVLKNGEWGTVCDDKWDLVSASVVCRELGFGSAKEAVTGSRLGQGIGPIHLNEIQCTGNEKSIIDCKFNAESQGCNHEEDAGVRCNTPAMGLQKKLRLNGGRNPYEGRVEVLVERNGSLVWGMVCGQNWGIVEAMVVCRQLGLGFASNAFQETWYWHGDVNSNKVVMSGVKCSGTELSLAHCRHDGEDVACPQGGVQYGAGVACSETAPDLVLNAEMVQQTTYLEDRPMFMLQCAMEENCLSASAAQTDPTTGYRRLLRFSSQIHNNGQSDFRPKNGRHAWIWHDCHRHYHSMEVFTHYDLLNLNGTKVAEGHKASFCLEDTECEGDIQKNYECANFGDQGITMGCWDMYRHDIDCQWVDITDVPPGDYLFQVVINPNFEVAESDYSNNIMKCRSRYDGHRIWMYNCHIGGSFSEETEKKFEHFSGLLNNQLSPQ
pIC50: −log10 of the molar value. Where a name gives a salt, the structure may show the parent alone.
quantity kind: pIC50

Reference set, count: 2
>>> measurement("NCc1cc(Oc2cccc(C(=O)NCCO)c2)nc(C(F)(F)F)c1 [Compound 1-16, hydrochloride]")
"> 6.52"
>>> measurement("NCc1cc(Oc2cccc(COc3ccccc3)c2)nc(C(F)(F)F)c1 [Compound 1-4, trifluoroacetate]")
"> 6.52"

I have this compound here, NCc1cc(Oc2cccc(C(=O)N3CCC4(CC3)CNC(=O)O4)c2)nc(C(F)(F)F)c1 [Compound 1-27, hydrochloride] , and I need its recorded pIC50. > 6.52

I have this compound here, Cc1nnc(C(=O)N2CCC[C@H](Oc3cc(CN)cc(C(F)(F)F)n3)C2)o1 [Compound 1-51, trifluoroacetate] , and I need its recorded pIC50. 6.00 to 6.52
